Data origin: patent US20230159509A1

target: TRAP1 enzyme (Homo sapiens, UniProt Q12931); construct: 150 nM Trap1 enzyme was incubated with various concentrations of the test compound; experiment: Malachite green phosphate assay of TRAP1 ATPase activity; format: biochemical; conditions: maximal percent activation; read-out: Malachite Green Fluor DRC: Mean Emax
experimental-readout: Emax

Worked cases, answers included:
{"columns": ["structure-smiles-string", "Emax"],
 "data": [
  ["COc1ncc(NC(=O)c2ncc(-c3ccccc3)o2)cc1S(=O)(=O)Nc1c(Cl)cccc1Cl", "200 to 300%"],
  ["COc1ncc(NC(=O)c2ncc(-c3ccccc3)o2)cc1S(=O)(=O)Nc1ccc(Cl)cc1", "160 to 199%"],
  ["Cc1cccc(C)c1NS(=O)(=O)c1cncc(NC(=O)c2cnc(-c3ccccc3)[nH]2)c1", "160 to 199%"]
]}

Summary for this molecule, `O=C(Nc1cccc(S(=O)(=O)Nc2ccc(Cl)cc2)n1)c1cnc(-c2ccccc2)[nH]1` : Emax is 200 to 300%

Summary for this molecule, `COc1ncc(NC(=O)c2cnc(-c3ccccc3)o2)cc1S(=O)(=O)Nc1ccc(C(F)(F)F)cc1` : Emax is 160 to 199%

Summary for this molecule, `COc1ncc(NC(=O)c2ncc(-c3ccccc3)o2)cc1S(=O)(=O)Nc1ccc(C(F)(F)F)cc1` : Emax is 119 to 159%

---

# maps each entry to its EC50
molecular target: TRAP1 enzyme (Homo sapiens); construct: 150 nM Trap1 enzyme was incubated with various concentrations of the test compound; test: ADP Glo assay of TRAP1 ATPase activity; format: biochemical; conditions: concentration for half maximal activation; read-out: ADP GLO DRC: GeoMean EC50

Worked cases, answers included:
{"columns": ["compound", "EC50"],
 "data": [
  ["COc1ncc(NC(=O)c2cccc3ocnc23)cc1S(=O)(=O)Nc1c(C)cccc1C [compound 1366]", "< 10 µM"],
  ["COc1ncc(NC(=O)c2csc3c2CCCCC3)cc1S(=O)(=O)Nc1c(C)cccc1C [compound 1486]", "< 10 µM"],
  ["COc1ncc(NC(=O)c2coc(-c3ccccc3)n2)cc1S(=O)(=O)Nc1c(C)cccc1F [compound 1485]", "< 10 µM"]
]}

Summary for this compound, COc1ncc(NC(=O)c2ncc(-c3ccccc3)o2)cc1S(=O)(=O)Nc1cccc2cncc(C)c12 [compound 1513] : EC50 is < 10 µM

Summary for this compound, COc1ncc(NC(=O)c2csc(-c3ccccc3)n2)cc1S(=O)(=O)Nc1ccc(Cl)nc1C [compound 1382] : EC50 is 20 to 100 µM

Summary for this compound, COc1ncc(NC(=O)c2cnc3n2CCCC3)cc1S(=O)(=O)Nc1c(C)cccc1C [compound 1404] : EC50 is 20 to 100 µM

Summary for this compound, COc1ncc(NC(=O)c2c[nH]c(-c3ccccc3)n2)cc1S(=O)(=O)Nc1c(C)cccc1C [compound 2092] : EC50 is < 10 µM

Summary for this compound, COc1ncc(NC(=O)c2csc(-c3cc(F)c(F)c(F)c3)n2)cc1S(=O)(=O)Nc1c(C)csc1C [compound 2466] : EC50 is < 10 µM

---

# maps each entry to its activation at 50 µM
Biological target: TRAP1 enzyme (Homo sapiens, UniProt Q12931)
Construct: 150 nM Trap1 enzyme was incubated with various concentrations of the test compound
Sequence (Q12931 60-704): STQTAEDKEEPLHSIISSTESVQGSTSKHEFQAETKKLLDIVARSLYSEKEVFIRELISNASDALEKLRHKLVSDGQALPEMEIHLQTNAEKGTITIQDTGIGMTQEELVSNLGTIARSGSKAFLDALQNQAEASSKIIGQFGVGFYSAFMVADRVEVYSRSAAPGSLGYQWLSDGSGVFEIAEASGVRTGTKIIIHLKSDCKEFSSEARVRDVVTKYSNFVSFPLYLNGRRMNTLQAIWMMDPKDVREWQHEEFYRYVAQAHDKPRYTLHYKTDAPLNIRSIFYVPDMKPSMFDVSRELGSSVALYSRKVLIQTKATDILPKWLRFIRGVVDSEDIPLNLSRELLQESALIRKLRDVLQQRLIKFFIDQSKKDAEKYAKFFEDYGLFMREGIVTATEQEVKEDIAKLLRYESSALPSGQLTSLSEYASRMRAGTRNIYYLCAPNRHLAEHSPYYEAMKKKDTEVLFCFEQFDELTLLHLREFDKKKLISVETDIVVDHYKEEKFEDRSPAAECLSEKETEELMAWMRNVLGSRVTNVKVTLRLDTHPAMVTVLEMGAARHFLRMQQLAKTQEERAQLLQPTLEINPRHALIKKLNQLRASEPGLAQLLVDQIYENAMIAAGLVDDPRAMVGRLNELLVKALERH
Assay: ADP Glo assay of TRAP1 ATPase activity
Assay type: biochemical
Conditions: 1 h; compound concentration 50 μM; read-out: ADP-Glo Percent Activation at 50 μM

Worked cases, answers included:
{"columns": ["compound", "activation at 50 µM"],
 "data": [
  ["COc1ncc(NC(=O)c2ccn3cnnc3c2)cc1S(=O)(=O)Nc1c(C)cccc1C [compound 2526]", "120 to 150%"],
  ["COc1ncc(NC(=O)c2[nH]cnc2C)cc1S(=O)(=O)Nc1c(C)cccc1C [compound 2731]", "120 to 150%"],
  ["COc1ncc(NC(=O)c2ccccc2C)cc1S(=O)(=O)Nc1c(C)cccc1C [compound 2548]", "181 to 352%"]
]}

Summary for this compound, COc1ncc(NC(=O)c2ccccc2CN2CCOCC2)cc1S(=O)(=O)Nc1c(C)cccc1C [compound 2634] : activation at 50 µM is 181 to 352%

Summary for this compound, CCc1noc(C)c1C(=O)Nc1cnc(OC)c(S(=O)(=O)Nc2c(C)cccc2C)c1 [compound 2752] : activation at 50 µM is 120 to 150%

Summary for this compound, COc1ncc(NC(=O)c2ccc(S(C)(=O)=O)cc2)cc1S(=O)(=O)Nc1c(C)cccc1C [compound 2580] : activation at 50 µM is 120 to 150%

Summary for this compound, CCc1cc(C(=O)Nc2cnc(OC)c(S(=O)(=O)Nc3c(C)cccc3C)c2)nn1C [compound 2786] : activation at 50 µM is 181 to 352%

Summary for this compound, COc1ncc(NC(=O)c2cccc3c2CCC(=O)N3)cc1S(=O)(=O)Nc1c(C)cccc1C [compound 2525] : activation at 50 µM is 151 to 180%

Summary for this compound, CCn1cc(C(=O)Nc2cnc(OC)c(S(=O)(=O)Nc3c(C)cccc3C)c2)cn1 [compound 2750] : activation at 50 µM is 120 to 150%

Summary for this compound, COc1ncc(NC(=O)c2csnn2)cc1S(=O)(=O)Nc1c(C)cccc1C [compound 2777] : activation at 50 µM is 120 to 150%

Summary for this compound, COc1ncc(NC(=O)c2ccc(N3CCOCC3)cc2F)cc1S(=O)(=O)Nc1c(C)cccc1C [compound 2590] : activation at 50 µM is 181 to 352%

Summary for this compound, COc1ncc(NC(=O)c2cccc3c2CC(=O)N3)cc1S(=O)(=O)Nc1c(C)cccc1C [compound 2635] : activation at 50 µM is 181 to 352%

Summary for this compound, COc1ncc(NC(=O)c2cncc(N(C)C)n2)cc1S(=O)(=O)Nc1c(C)cccc1C [compound 2543] : activation at 50 µM is 181 to 352%

Summary for this compound, COc1ncc(NC(=O)c2cccc(NC(=O)N(C)C)c2)cc1S(=O)(=O)Nc1c(C)cccc1C [compound 2784] : activation at 50 µM is 181 to 352%

Summary for this compound, COc1ncc(NC(=O)c2ccc(C3CCN(C)CC3)cc2)cc1S(=O)(=O)Nc1c(C)cccc1C [compound 2745] : activation at 50 µM is 151 to 180%

Summary for this compound, CCCc1cc(C(=O)Nc2cnc(OC)c(S(=O)(=O)Nc3c(C)cccc3C)c2)n(C)n1 [compound 2626] : activation at 50 µM is 181 to 352%

Summary for this compound, COc1ncc(NC(=O)c2cc(C)[nH]n2)cc1S(=O)(=O)Nc1c(C)cccc1C [compound 2749] : activation at 50 µM is 151 to 180%

Summary for this compound, COc1ncc(NC(=O)c2ccc(N3CCOCC3)cn2)cc1S(=O)(=O)Nc1c(C)cccc1C [compound 2653] : activation at 50 µM is 151 to 180%

Summary for this compound, COc1ncc(NC(=O)c2ccc(C(C)=O)cc2)cc1S(=O)(=O)Nc1c(C)cccc1C [compound 2597] : activation at 50 µM is 181 to 352%

Summary for this compound, COc1ncc(NC(=O)c2cnn(C3CCOCC3)c2)cc1S(=O)(=O)Nc1c(C)cccc1C [compound 2587] : activation at 50 µM is 120 to 150%

Summary for this compound, COc1ncc(NC(=O)c2noc3c2CCCC3)cc1S(=O)(=O)Nc1c(C)cccc1C [compound 2725] : activation at 50 µM is 181 to 352%

Summary for this compound, COc1ncc(NC(=O)c2ccc(N3CCN(C)CC3)c(Cl)c2)cc1S(=O)(=O)Nc1c(C)cccc1C [compound 2764] : activation at 50 µM is 181 to 352%

Summary for this compound, COc1ccc(C(=O)Nc2cnc(OC)c(S(=O)(=O)Nc3c(C)cccc3C)c2)cn1 [compound 2556] : activation at 50 µM is 151 to 180%

Summary for this compound, CCn1nc(C)cc1C(=O)Nc1cnc(OC)c(S(=O)(=O)Nc2c(C)cccc2C)c1 [compound 2609] : activation at 50 µM is 181 to 352%

Summary for this compound, COc1ncc(NC(=O)c2cc(C(F)(F)F)nn2C)cc1S(=O)(=O)Nc1c(C)cccc1C [compound 2614] : activation at 50 µM is 120 to 150%

Summary for this compound, COc1ncc(NC(=O)c2ccn(C(C)C)n2)cc1S(=O)(=O)Nc1c(C)cccc1C [compound 2601] : activation at 50 µM is 181 to 352%

Summary for this compound, COc1ncc(NC(=O)c2ocnc2C)cc1S(=O)(=O)Nc1c(C)cccc1C [compound 2733] : activation at 50 µM is 151 to 180%

Summary for this compound, COc1ncc(NC(=O)c2ccc(C(F)(F)F)s2)cc1S(=O)(=O)Nc1c(C)cccc1C [compound 2644] : activation at 50 µM is 151 to 180%
